Attribution: patent US8071565B2

molecular target: adenosine A2A receptor (Homo sapiens)
Sequence (P29274 whole entry): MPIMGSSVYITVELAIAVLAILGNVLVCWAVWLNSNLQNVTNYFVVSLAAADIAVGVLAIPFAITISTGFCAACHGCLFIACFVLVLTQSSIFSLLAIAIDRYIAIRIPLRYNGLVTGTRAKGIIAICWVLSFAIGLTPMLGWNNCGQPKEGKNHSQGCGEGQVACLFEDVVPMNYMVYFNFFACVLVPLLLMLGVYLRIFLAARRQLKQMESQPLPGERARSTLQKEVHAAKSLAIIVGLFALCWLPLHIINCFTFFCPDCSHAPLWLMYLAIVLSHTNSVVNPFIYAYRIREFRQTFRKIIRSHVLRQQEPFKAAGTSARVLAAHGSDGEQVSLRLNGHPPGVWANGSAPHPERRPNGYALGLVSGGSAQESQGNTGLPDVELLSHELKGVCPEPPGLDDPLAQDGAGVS
Structures can show the parent of a compound that is named as a salt.
compounds and their reported pKi
Reminder that pKi is minus the log10 of a molar concentration.

O=C(Nc1cccnc1)N[C@@H]1CCN(c2nc(NCC(c3ccccc3)c3ccccc3)c3ncn([C@@H]4C[C@H](N5C(=O)CNC5=O)[C@@H](O)[C@H]4O)c3n2)C1 [Example C2, trifluoroacetate] : 7.48

Q: # return pKi of C[C@@H]1NC(=O)N([C@H]2C[C@@H](n3cnc4c(NCC(c5ccccc5)c5ccccc5)nc(N5CC[C@@H](NC(=O)Nc6cccnc6)C5)nc43)[C@H](O)[C@@H]2O)C1=O (system: adenosine A2A receptor (Homo sapiens))
A: 7.05
